Target: HA of ca A/Vietnam/1203/04 (H5N1) virus (influenza A virus)
Assay: cell-based or functional assay
Quantity Name: Neutralization IC50, H5-VM04 (µg/mL)
Just the number in µg/mL, nothing appended.

Below, each entry is followed by its recorded Neutralization IC50, H5-VM04 result.
{"Binder": "Antibody 3 (antibody, V domains shown) VH: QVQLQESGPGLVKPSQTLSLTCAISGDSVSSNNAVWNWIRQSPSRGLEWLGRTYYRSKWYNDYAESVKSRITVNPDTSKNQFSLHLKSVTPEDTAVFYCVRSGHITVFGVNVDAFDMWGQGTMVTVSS VL: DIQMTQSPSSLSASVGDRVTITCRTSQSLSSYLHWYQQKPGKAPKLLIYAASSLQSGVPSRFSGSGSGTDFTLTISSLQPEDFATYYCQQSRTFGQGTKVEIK", "Neutralization IC50, H5-VM04 [µg/mL]": 2.11}
{"Binder": "Antibody 5 (antibody, V domains shown) VH: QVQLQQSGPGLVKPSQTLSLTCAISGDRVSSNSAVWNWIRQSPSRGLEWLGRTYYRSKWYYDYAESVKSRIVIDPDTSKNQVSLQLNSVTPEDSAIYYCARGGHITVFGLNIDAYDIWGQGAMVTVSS VL: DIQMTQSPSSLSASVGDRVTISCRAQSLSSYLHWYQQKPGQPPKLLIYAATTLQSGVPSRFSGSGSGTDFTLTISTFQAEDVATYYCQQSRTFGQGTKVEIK", "Neutralization IC50, H5-VM04 [µg/mL]": 2.6}

Quick one: Neutralization IC50, H5-VM04 for Antibody 6 (antibody, V domains shown) VH: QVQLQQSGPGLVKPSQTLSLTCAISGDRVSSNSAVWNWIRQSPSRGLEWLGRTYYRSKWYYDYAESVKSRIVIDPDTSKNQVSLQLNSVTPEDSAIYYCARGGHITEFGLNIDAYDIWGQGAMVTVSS VL: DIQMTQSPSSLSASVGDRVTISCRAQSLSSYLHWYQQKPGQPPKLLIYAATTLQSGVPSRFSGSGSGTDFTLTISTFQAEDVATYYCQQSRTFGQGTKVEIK ?
8.87

Which Neutralization IC50, H5-VM04 is listed for Antibody 10 (antibody, V domains shown) VH: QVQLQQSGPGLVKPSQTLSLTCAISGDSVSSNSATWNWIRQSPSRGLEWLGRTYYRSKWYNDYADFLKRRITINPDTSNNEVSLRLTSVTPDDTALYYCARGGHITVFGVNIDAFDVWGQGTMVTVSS VL: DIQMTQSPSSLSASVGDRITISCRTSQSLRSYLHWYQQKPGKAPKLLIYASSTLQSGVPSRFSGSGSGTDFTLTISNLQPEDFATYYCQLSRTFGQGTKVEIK ?
2.21

For the binder shown here, Antibody 8 (antibody, V domains shown) VH: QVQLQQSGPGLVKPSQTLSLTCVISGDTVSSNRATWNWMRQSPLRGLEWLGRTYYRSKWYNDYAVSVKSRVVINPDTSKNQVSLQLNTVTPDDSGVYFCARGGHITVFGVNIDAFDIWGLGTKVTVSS VL: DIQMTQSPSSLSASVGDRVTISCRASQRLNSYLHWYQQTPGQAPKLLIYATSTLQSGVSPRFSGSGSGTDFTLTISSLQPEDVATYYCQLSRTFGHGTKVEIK , give the reported Neutralization IC50, H5-VM04.
3.9
